- measuredOn: Multidrug resistance-associated protein 1 (Homo sapiens, UniProt P33527)
- Sequence (P33527 whole entry): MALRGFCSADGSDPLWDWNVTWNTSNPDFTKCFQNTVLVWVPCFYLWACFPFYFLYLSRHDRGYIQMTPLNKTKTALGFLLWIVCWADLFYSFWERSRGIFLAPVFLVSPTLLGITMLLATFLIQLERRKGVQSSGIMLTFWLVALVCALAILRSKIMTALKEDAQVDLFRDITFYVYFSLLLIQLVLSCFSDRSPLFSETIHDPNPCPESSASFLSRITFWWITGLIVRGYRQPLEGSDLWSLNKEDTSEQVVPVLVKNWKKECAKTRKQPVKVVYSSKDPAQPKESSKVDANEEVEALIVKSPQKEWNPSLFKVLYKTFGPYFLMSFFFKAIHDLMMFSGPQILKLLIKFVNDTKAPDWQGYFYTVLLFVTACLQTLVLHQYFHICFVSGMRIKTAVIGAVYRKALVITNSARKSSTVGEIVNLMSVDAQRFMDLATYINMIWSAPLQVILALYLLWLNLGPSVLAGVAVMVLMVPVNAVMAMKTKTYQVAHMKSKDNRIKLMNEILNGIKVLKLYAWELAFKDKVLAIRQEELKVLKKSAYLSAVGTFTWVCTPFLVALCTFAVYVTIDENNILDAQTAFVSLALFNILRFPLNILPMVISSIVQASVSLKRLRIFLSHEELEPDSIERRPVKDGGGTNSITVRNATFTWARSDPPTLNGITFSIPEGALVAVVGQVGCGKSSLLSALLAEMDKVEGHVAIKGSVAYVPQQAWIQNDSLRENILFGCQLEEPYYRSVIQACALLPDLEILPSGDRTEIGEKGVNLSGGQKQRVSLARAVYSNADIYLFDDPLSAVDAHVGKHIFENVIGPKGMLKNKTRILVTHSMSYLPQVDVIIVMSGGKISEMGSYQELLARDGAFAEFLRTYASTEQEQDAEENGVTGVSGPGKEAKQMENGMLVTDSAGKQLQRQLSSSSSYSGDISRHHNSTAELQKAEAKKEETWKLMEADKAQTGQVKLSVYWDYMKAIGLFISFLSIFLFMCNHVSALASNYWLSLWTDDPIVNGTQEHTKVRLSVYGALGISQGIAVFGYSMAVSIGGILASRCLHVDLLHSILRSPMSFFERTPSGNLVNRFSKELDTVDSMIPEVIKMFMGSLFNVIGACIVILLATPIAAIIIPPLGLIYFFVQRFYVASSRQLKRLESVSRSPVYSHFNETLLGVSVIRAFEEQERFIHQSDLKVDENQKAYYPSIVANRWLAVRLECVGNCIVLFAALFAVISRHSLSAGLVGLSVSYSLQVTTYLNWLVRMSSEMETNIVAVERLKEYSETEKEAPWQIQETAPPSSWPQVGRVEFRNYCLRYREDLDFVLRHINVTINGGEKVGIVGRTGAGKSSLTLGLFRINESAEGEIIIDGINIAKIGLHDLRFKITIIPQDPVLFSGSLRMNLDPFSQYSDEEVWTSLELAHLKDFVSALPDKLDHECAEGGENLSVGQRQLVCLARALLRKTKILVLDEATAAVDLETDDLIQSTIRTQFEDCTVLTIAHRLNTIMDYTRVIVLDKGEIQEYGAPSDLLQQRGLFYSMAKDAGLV
- experimentalProtocol: Inhibition of human MRP1 transfected in human HEK293 cells assessed as inhibition of Calcein-AM efflux measured after 30 mins by FACS Calibur cytometric analysis
- Type: cell-based
- cond: hek293, 0.5 h
property: inhibition (INH)

compound	measuredOn	property	readoutValue
COc1cccc(CCn2c3c(c4c(OCCCCCCOc5ccc6c(c5)-c5c(c7c(n5CCc5ccccc5)CC(C)CC7=O)C6=O)cccc42)C(=O)c2ccccc2-3)c1 (stereo not drawn)	Multidrug resistance-associated protein 1 (Homo sapiens, UniProt P33527)	inhibition (INH)	Not Active
COc1cccc(CCn2c3c(c4c(OCCOc5cccc6c5c5c(n6CCc6cccc(OC)c6)-c6ccccc6C5=O)cccc42)C(=O)c2ccccc2-3)c1	Multidrug resistance-associated protein 1 (Homo sapiens, UniProt P33527)	inhibition (INH)	Not Active
CC1CC(=O)c2c3c(n(CCc4ccccc4)c2C1)-c1cc(OCCCCOc2ccc4c(c2)-c2c(c5c(n2CCc2ccccc2)CC(C)CC5=O)C4=O)ccc1C3=O (stereo not drawn)	Multidrug resistance-associated protein 1 (Homo sapiens, UniProt P33527)	inhibition (INH)	Not Active
COc1cccc(CCn2c3c(c4c(OCCCCOc5ccc6c(c5)-c5c(c7c(n5CCc5ccccc5)CC(C)CC7=O)C6=O)cccc42)C(=O)c2ccccc2-3)c1 (stereo not drawn)	Multidrug resistance-associated protein 1 (Homo sapiens, UniProt P33527)	inhibition (INH)	Not Active
COc1cccc(CCn2c3c(c4c(OCCCCCCCCOc5ccc6c(c5)-c5c(c7c(n5CCc5ccccc5)CC(C)CC7=O)C6=O)cccc42)C(=O)c2ccccc2-3)c1 (stereo not drawn)	Multidrug resistance-associated protein 1 (Homo sapiens, UniProt P33527)	inhibition (INH)	Not Active
COc1cccc(CCn2c3c(c4c(OCCCCOc5cccc6c5c5c(n6CCc6cccc(OC)c6)-c6ccccc6C5=O)cccc42)C(=O)c2ccccc2-3)c1	Multidrug resistance-associated protein 1 (Homo sapiens, UniProt P33527)	inhibition (INH)	Not Active
CC1CC(=O)c2c3c(n(CCc4ccccc4)c2C1)-c1cc(OCCOc2ccc4c(c2)-c2c(c5c(n2CCc2ccccc2)CC(C)CC5=O)C4=O)ccc1C3=O (stereo not drawn)	Multidrug resistance-associated protein 1 (Homo sapiens, UniProt P33527)	inhibition (INH)	Not Active
COc1cccc(CCn2c3c(c4c(OCCCCCCOc5cccc6c5c5c(n6CCc6cccc(OC)c6)-c6ccccc6C5=O)cccc42)C(=O)c2ccccc2-3)c1	Multidrug resistance-associated protein 1 (Homo sapiens, UniProt P33527)	inhibition (INH)	Not Active
